- subject-of-test: neuronal nicotinic acetylcholine receptors (Rattus norvegicus, UniProt P09483+P12390)
- Construct: crude synaptic membrane preparations from whole rat brain; from tissue; host or cells: whole rat brain, crude synaptic membranes
- Sequence (P09483 31-630): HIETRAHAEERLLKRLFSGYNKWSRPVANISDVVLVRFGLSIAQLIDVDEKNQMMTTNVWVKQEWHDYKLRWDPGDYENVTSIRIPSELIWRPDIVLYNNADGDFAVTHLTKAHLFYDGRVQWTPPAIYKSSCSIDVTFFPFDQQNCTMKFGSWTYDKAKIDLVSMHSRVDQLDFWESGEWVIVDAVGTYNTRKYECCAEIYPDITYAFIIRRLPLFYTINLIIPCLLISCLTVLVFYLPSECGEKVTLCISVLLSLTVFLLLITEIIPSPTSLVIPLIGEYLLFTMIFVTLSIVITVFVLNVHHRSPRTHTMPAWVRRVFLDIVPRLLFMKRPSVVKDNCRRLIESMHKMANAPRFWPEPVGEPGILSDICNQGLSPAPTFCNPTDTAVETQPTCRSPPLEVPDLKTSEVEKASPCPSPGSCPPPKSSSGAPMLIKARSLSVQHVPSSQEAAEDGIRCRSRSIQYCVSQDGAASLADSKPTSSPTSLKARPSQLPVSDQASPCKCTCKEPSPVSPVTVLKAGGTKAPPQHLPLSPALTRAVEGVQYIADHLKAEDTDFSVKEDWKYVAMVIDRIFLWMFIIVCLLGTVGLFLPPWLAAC
- Sequence (P12390 25-500): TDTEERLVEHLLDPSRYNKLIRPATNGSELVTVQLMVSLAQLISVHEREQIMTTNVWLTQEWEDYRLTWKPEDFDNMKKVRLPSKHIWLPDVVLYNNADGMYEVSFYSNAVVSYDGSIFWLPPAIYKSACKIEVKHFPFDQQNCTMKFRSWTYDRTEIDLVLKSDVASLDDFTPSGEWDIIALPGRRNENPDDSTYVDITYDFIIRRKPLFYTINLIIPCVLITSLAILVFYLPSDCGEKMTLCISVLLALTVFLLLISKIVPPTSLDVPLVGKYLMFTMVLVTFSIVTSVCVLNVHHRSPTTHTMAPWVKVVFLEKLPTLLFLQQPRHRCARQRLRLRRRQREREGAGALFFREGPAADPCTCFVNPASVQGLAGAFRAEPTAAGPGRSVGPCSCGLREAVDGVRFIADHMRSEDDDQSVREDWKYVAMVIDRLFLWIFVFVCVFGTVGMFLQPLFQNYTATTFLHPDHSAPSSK
- experiment-description: Binding of [3H]-cytisine to neuronal nicotinic acetylcholine receptors, crude synaptic membranes from whole rat brain
- test-parameters: [3H]-CYT 1.25 nM, whole rat brain membranes, 60 minutes at 4° C.; IC50 converted to Ki by Cheng and Prusoff correction; read-out: Average Ki
Where a name gives a salt, the structure may show the parent alone.
result-type: Ki (nM)
State just the number; it will be interpreted in nM.

Incoming: Fill in: Ki of c1cncc(N2C[C@H]3CCN[C@H]3C2)c1 [Example 28, dihydrochloride] is ___
Outgoing: 0.34

Incoming: Fill in: Ki of Cc1cc(N2C[C@H]3CCNC[C@H]32)cnc1Cl [Example 89, fumarate] is ___
Outgoing: 0.24

Incoming: Fill in: Ki of Oc1cncc(N2CC[C@H]3CNC[C@H]32)c1 [Example 82, dihydrochloride] is ___
Outgoing: 363

Incoming: Fill in: Ki of Clc1cc(N2C[C@@H]3CCNC[C@@H]32)cnc1Cl [Example 94, 4-methylbenzenesulfonate] is ___
Outgoing: 0.12

---

- subject-of-test: neuronal nicotinic acetylcholine receptors (Rattus norvegicus, UniProt P09483+P12390)
- Construct: crude synaptic membrane preparations from whole rat brain; from tissue; host or cells: whole rat brain, crude synaptic membranes
- experiment-description: Binding of [3H]-cytisine to neuronal nicotinic acetylcholine receptors, crude synaptic membranes from whole rat brain
pKi: −log10 of the molar value. Counter-ions that a name gives are not always drawn.
We use 10 as the dividing line for pKi: on or above the line is yes, below is no.

Incoming: API: above_or_equal(metric=pKi, cutoff=10) for item C#Cc1cncc(N2C[C@@H]3CNC[C@@H]32)c1 [Example 68, fumarate]
Outgoing: no

Incoming: API: above_or_equal(metric=pKi, cutoff=10) for item `COc1cc(N2C[C@H]3CCN[C@H]3C2)cnc1Br`
Outgoing: no

Incoming: API: above_or_equal(metric=pKi, cutoff=10) for item Clc1ccc(N2C[C@H]3CCCN[C@H]3C2)cn1 (relative stereo) [Example 22, dihydrochloride]
Outgoing: no

Incoming: API: above_or_equal(metric=pKi, cutoff=10) for item CN1C[C@H]2CCN(c3ccc(Cl)nc3)[C@H]2C1 (relative stereo) [Example 17, hydrochloride]
Outgoing: no

Incoming: API: above_or_equal(metric=pKi, cutoff=10) for item Clc1ccc(N2C[C@H]3CCN[C@H]3C2)cn1 [Example 14, dihydrochloride]
Outgoing: no

Incoming: API: above_or_equal(metric=pKi, cutoff=10) for item Cl.Cl.FC(F)(F)COc1cncc(N2C[C@H]3CNC[C@H]3C2)c1 [Example 12, dihydrochloride]
Outgoing: yes

---

- subject-of-test: neuronal nicotinic acetylcholine receptors (Rattus norvegicus, UniProt P09483+P12390)
- Construct: crude synaptic membrane preparations from whole rat brain; from tissue; host or cells: whole rat brain, crude synaptic membranes
- experiment-description: Binding of [3H]-cytisine to neuronal nicotinic acetylcholine receptors, crude synaptic membranes from whole rat brain
Where a name gives a salt, the structure may show the parent alone.
Labelling field: enter t if recorded Ki is less than 1 nM. Enter f if it equals or exceeds that cut-off.

Incoming: Answer whether the compound c1cncc(N2C[C@@H]3CCNC[C@@H]32)c1 (relative stereo) [Example 44, bis(4-methylbenzenesulfonate)] has Ki strictly less than 1 nM
Outgoing: t

Incoming: Answer whether the compound `CCCOc1cncc(N2C[C@H]3CNC[C@H]3C2)c1` has Ki strictly less than 1 nM
Outgoing: t

Incoming: Answer whether the compound Clc1ccc(N2C[C@H]3NCC[C@H]32)cn1 [Example 19, bis(4-methylbenzenesulfonate)] has Ki strictly less than 1 nM
Outgoing: f

Incoming: Answer whether the compound `N#Cc1cncc(N2C[C@H]3CCN[C@H]3C2)c1` has Ki strictly less than 1 nM
Outgoing: f

Incoming: Answer whether the compound Clc1ccc(N2C[C@@H]3CNC[C@@H]32)cn1 [Example 54, fumarate] has Ki strictly less than 1 nM
Outgoing: f

Incoming: Answer whether the compound Clc1cc(N2C[C@H]3CCN[C@H]3C2)cnc1Cl [Example 24, hydrochloride] has Ki strictly less than 1 nM
Outgoing: t

Incoming: Answer whether the compound COc1cc(N2C[C@H]3CNC[C@H]3C2)cnc1Cl [Example 10, dihydrochloride] has Ki strictly less than 1 nM
Outgoing: t

Incoming: Answer whether the compound COc1cncc(N2C[C@H]3CCN[C@H]3C2)c1 [Example 29, dihydrochloride] has Ki strictly less than 1 nM
Outgoing: t

Incoming: Answer whether the compound Clc1ccc(N2CC[C@H]3CN[C@H]3C2)cn1 (relative stereo) [Example 42, bis(4-methylbenzenesulfonate)] has Ki strictly less than 1 nM
Outgoing: t

Incoming: Answer whether the compound c1cncc(N2CC[C@H]3CNC[C@H]32)c1 [Example 78, dihydrochloride] has Ki strictly less than 1 nM
Outgoing: f

Incoming: Answer whether the compound `N#Cc1cncc(N2CC[C@@H]3CNC[C@@H]32)c1` has Ki strictly less than 1 nM
Outgoing: f

Incoming: Answer whether the compound Clc1ccc(N2CC[C@@H]3CNC[C@@H]32)cn1 (relative stereo) [Example 16, hydrochloride] has Ki strictly less than 1 nM
Outgoing: f

Incoming: Answer whether the compound N#Cc1cncc(N2C[C@@H]3CNC[C@@H]32)c1 [Example 70, fumarate] has Ki strictly less than 1 nM
Outgoing: t

Incoming: Answer whether the compound C=Cc1cc(N2C[C@@H]3CNC[C@@H]32)cnc1Br [Example 72, fumarate] has Ki strictly less than 1 nM
Outgoing: t

Incoming: Answer whether the compound c1cncc(N2CC3CNCC32)c1 (stereo not drawn) has Ki strictly less than 1 nM
Outgoing: f

Incoming: Answer whether the compound Clc1ccc(N2CC[C@H]3CN[C@H]3C2)cn1 [Example 49, fumarate] has Ki strictly less than 1 nM
Outgoing: t

Incoming: Answer whether the compound Clc1ccc(N2C[C@H]3CN[C@H]3C2)cn1 [Example 80, fumarate] has Ki strictly less than 1 nM
Outgoing: t
